protocol description: Pharmacokinetic study in cynomolgus monkeys
Format: in vivo
applied conditions: cynomolgus monkey, plasma, Oral (2 mg/kg), NA: no detectable, read-out: C0 or Cmax (Cmax)
Would you mind telling me the reported Cmax of each entry?

Dear colleague, I am looking for the recorded Cmax of the following molecule: `[2H]C([2H])([2H])CC(=O)c1cnc(NC(=O)C2CC2)cc1Nc1nccc(-c2ncn(C([2H])([2H])[2H])n2)c1OC`
384 ng/mL

Fill in: Cmax of `[2H]C([2H])([2H])CC(=O)c1cnc(NC(=O)C2CC2)cc1Nc1cccc(-c2ncn(C([2H])([2H])[2H])n2)c1OC` is ___
663 ng/mL

Name the recorded Cmax for `[2H]C([2H])([2H])CC(=O)c1cnc(Nc2cccc(C#N)n2)cc1Nc1cccc(-c2ncn(C([2H])([2H])[2H])n2)c1OC` .
246 ng/mL

Can you look up the measured Cmax of `[2H]C([2H])([2H])CC(=O)c1cnc(Nc2ccc(C(C)(C)O)c(F)n2)cc1Nc1nccc(-c2ncn(C([2H])([2H])[2H])n2)c1OC` for me?
13.9 ng/mL

Origin of values: patent US11053219B2
